# PROCEDURE DETAILS: Inhibition of Hepatitis C virus genotype 1b Con1 NS5B Cdelta21 polymerase assessed as incorporation of [33P]-CTP into heteropolymer RNA template after 2 hrs
# Parameters: species or system Hepacivirus hominis
# PROTOCOL CONDITIONS: Con1, 2 h
OBSERVABLE: IC50 (nM)
Answers are plain numbers, in nM.

Lab note: each compound below needs its IC50 filled in.
1. Cc1ncccc1C(=O)Nc1ccc(C(C)C)cc1N1CCN(c2cnccn2)CC1
2. Cc1nc(Br)sc1C(=O)Nc1ccc(C(C)C)cc1N1CCN(c2cnccn2)CC1
3. Cc1ccc(C(=O)Nc2ccc(C(C)C)cc2N2CCN(c3cnccn3)CC2)cn1
4. CC(C)c1ccc(NC(=O)c2cccnc2)c(N2CCN(c3nccs3)CC2)c1

520
3000
14000
2500
